Molecular target: Muscarinic acetylcholine receptor M4 (Homo sapiens)
Sequence (whole entry): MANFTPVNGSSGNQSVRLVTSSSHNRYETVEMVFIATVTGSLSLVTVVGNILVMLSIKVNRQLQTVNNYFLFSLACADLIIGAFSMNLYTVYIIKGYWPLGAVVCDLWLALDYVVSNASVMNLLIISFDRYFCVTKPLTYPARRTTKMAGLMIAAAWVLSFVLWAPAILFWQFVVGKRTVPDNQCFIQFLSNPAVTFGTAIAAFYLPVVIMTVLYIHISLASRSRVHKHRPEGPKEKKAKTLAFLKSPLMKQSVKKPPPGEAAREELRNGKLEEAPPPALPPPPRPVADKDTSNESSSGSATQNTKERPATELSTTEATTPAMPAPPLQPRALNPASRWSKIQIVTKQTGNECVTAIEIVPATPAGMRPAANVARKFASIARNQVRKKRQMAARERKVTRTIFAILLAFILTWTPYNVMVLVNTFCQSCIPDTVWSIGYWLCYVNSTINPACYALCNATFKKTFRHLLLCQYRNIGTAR
Assay: Positive allosteric modulation activity at human M4 receptor expressed in CHO cells co-expressing Gqi5 protein assessed as potentiation of EC20 acetyl choline-induced response by calcium mobilization assay relative to acetylcholine
Assay type: functional, cell-based
Each record is given Satisfied if its reported %max is strictly below 60%. Records at or above 60% are given Not satisfied.

> print(dat)
                       structurestring  answerlabel
1  Cc1cc(C)c2c(N)c(C(=O)c3ccccc3)sc2n1    Satisfied

Ask | A record lists COc1ccc(CCC(=O)c2sc3nnc(C)c(C)c3c2N)cc1F . Is its %max below 60%?
Reply | Not satisfied

Ask | A record lists Cc1nnc2sc(C(=O)c3ccccc3)c(N)c2c1C . Is its %max below 60%?
Reply | Not satisfied

Ask | A record lists COc1ccc(C(=O)c2sc3nc(C)cc(C)c3c2N)cc1 . Is its %max below 60%?
Reply | Satisfied

Ask | A record lists Cc1cc(C)c2c(N)c(C(=O)c3ccc(F)cc3F)sc2n1 . Is its %max below 60%?
Reply | Satisfied

Ask | A record lists Cc1cc(C)c2c(N)c(C(=O)c3ccc(O)cc3)sc2n1 . Is its %max below 60%?
Reply | Not satisfied

Ask | A record lists Cc1nnc2sc(C(=O)c3ccncc3)c(N)c2c1C . Is its %max below 60%?
Reply | Not satisfied

Ask | A record lists Cc1nc2sc(C(=O)c3ccccc3)c(N)c2c(C)c1Cl . Is its %max below 60%?
Reply | Satisfied

Ask | A record lists Cc1nc2sc(C(=O)c3cccnc3)c(N)c2c(C)c1Cl . Is its %max below 60%?
Reply | Not satisfied

Ask | A record lists Cc1cc(C)c2c(N)c(C(=O)c3ccncc3)sc2n1 . Is its %max below 60%?
Reply | Not satisfied

Ask | A record lists Cc1nnc2sc(C(=O)c3ccc(F)cc3F)c(N)c2c1C . Is its %max below 60%?
Reply | Satisfied
